assay-system: UP1 (hnRNP A1 RRM1-RRM2) (UniProt P09651 1-196)
Sequence (P09651 1-196): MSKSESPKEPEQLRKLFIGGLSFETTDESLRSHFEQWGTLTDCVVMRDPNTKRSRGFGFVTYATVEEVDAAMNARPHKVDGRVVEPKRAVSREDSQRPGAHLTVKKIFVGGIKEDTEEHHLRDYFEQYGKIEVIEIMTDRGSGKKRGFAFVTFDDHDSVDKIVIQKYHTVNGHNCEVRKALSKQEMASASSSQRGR
test-description: ITC; N=1.07; ITC: 20 mM Na phosphate pH 6.5, 100 mM NaCl, no DTT, 25 C; EMSA: 100 mM KCl, 20% glycerol, 0.2 mM EDTA, 100 mM Tris pH 8.0, 0.5 mM DTT, 0.5 mM ATP, 20 mM creatine phosphate, 3.2 mM MgCl2, 4 C; footprint: 12 mM Tris-HCl pH 7.5, 48 mM NaCl, 1.2 mM MgCl2, 37 C
run-parameters: protein: recombinant; tags: His tag removed by TEV; single strand
quantity-measured: Kd (nM)
// return numeric value only (unit: nM, not printed)

Measured Kd of UAGAUUAGCA (ssRNA) [10-mer] : 19.1

Origin of measurements: paper PMC6018666
